Measured EC50 by item
test.target: Fructose-1,6-bisphosphatase 1 (Mus musculus, UniProt Q9QXD6)
Sequence (Q9QXD6 whole entry): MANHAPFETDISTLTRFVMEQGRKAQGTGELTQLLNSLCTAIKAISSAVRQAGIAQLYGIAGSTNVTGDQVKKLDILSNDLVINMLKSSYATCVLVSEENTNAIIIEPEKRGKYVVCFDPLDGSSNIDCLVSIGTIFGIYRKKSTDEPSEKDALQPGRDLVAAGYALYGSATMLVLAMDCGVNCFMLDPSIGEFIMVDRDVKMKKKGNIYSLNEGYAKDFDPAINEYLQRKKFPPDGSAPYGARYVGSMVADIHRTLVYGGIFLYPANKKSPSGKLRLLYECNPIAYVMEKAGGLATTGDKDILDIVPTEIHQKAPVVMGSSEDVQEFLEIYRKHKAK
protocol: Inhibition of FBPase in mouse liver
Respond numerically; units are µM and should not be typed.

{"mol": "COCCc1sc(S(=O)(=O)NC(=O)Nc2nc(C)c(SC)s2)cc1C", "assay.endpoint": "EC50", "value.measured": 2.4}

Now examine the next entry.
[in] # EC50 lookup, item `CCc1nc(NC(=O)NS(=O)(=O)c2cc(C)c(CCO)s2)sc1SC`
[out] 5.3

----------
test.target: UniProt P09467
Sequence (P09467 whole entry): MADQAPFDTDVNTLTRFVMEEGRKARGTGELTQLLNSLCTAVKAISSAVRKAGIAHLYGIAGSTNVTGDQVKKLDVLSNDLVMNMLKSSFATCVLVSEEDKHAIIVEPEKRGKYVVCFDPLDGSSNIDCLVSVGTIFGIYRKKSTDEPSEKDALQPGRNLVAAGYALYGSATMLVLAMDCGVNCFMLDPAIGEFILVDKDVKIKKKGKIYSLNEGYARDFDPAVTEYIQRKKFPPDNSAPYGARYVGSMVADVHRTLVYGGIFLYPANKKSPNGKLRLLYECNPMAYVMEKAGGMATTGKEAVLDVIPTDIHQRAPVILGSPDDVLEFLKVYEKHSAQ
protocol: Inhibition of FBPase in human liver in presence of fructose-2,6-bisphosphate, a substrate site inhibitor
assay.endpoint: IC50 (nM)
Respond numerically; units are nM and should not be typed.

Example results:
{"mol": "Cc1ccccc1S(=O)(=O)NC(=O)Nc1ncc(Br)s1", "unit.text": "nM", "IC50": 3500}
{"mol": "Cc1cccc(S(=O)(=O)NC(=O)Nc2ncc(Br)s2)c1", "unit.text": "nM", "IC50": 170}

[in] # IC50 lookup, item `O=C(Nc1ncc(Br)s1)NS(=O)(=O)c1cc(Br)c(Cl)s1`
[out] 80

Reference source for all entries: ChEMBL document CHEMBL1153201
